Every entry's value here was drawn from ChEMBL document CHEMBL1127256.

# measuredOn: Human immunodeficiency virus type 1 protease (Human immunodeficiency virus 1)
# measurementProtocol: Percent inhibition of HIV-1 protease against substrate TLNFPIS-AMC (test I) at a concentration of 10 e-5M
readout: inhibition (%)

Take a look at these entries with their results.
Consider the compound CC(C)[C@H](NC(=O)OCc1ccccc1)C(=O)N[C@@H](Cc1ccccc1)CN(C)CCN(C)C[C@H](Cc1ccccc1)NC(=O)[C@H](NC(=O)OCc1ccccc1)C(C)C and give its measured inhibition.
3

Consider the compound CC(C)[C@H](NC(=O)OCc1ccccc1)C(=O)N[C@@H](Cc1ccccc1)CN(CCN(C[C@H](Cc1ccccc1)NC(=O)[C@H](NC(=O)OCc1ccccc1)C(C)C)C(=O)OC(C)(C)C)C(=O)OC(C)(C)C and give its measured inhibition.
3

[A] CC(C)[C@H](NC(=O)OCc1ccccc1)C(=O)N[C@H](CNCCNC[C@H](Cc1ccccc1)NC(=O)[C@H](NC(=O)OCc1ccccc1)C(C)C)Cc1ccccc1
[B] CC(C)[C@H](NC(=O)OCc1ccccc1)C(=O)N[C@@H](Cc1ccccc1)CN(CCO)CCN(CCO)C[C@H](Cc1ccccc1)NC(=O)[C@H](NC(=O)OCc1ccccc1)C(C)C
[C] CC(C)[C@H](NC(=O)OCc1ccccc1)C(=O)N[C@@H](Cc1ccccc1)CN(CCN(CC(=O)O)C[C@H](Cc1ccccc1)NC(=O)[C@H](NC(=O)OCc1ccccc1)C(C)C)CC(=O)O
Ascending sort, inhibition. Response field: labels, in requested order.
A, B, C
